assayNotes: Use of additives to improve separation of Nd/Dy mixture by precipitation with L5 (Example 18)
Assay type: physicochemical
setupConditions: additive 250 mM; 11 mM L5
Response field label: string, one of yes (1) (Supernatant concentration [mM] Dy strictly below 2 mM) or no (0).

- molecule: "O=C(O)c1ccccc1"
  category: "no (0)"
- molecule: "O=CO [formate]"
  category: "yes (1)"
- molecule: "CC(=O)O [acetate]"
  category: "no (0)"
- molecule: "c1ccncc1"
  category: "yes (1)"
- molecule: "OB(O)c1ccccc1"
  category: "yes (1)"
- molecule: "O=S(=O)(O)O [sulfate]"
  category: "yes (1)"
